Can you tell me self-cleavage for the items I'm about to list?
B1: LINE1-full (parent)
chain: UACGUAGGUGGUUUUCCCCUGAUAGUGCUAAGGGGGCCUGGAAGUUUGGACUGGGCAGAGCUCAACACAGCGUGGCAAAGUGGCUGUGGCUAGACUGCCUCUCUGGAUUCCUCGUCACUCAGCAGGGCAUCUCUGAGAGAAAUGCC

Variants of: B1
Assay: self-cleavage, relative activity (ratio to wild type); higher = more cleavage; in vitro, sequencing; the parent is a self-cleaving ribozyme
Answers are plain numbers.

> print(dat)
   mutant.code  measured.parameter  number
1   A64U A138G       self-cleavage    0.52
2  C103A U143C       self-cleavage     1.1
3    G36C A94G       self-cleavage    0.32
4         G25U       self-cleavage    1.45

Quick batch: self-cleavage for everything below.
1. A31G A64U
2. U9A G35C
3. G48A G49U
4. U1C U115A
5. C19A U91C

Out:
0.48
1.87
0.57
0.98
0.46

Report self-cleavage for every entry below.
1. A67U C71U
2. C37A A136G

Out:
1. 0.02
2. 1.04

Provide each entry's self-cleavage from the list below.
1. U112A A138G
2. U45C A50G
3. U14C G58C
4. A67U C146A

Out:
1. 1.57
2. 1
3. 0.08
4. 0.14

List self-cleavage for every entry below, keeping the order given.
1. A65U A69G
2. U5C U47C
3. U9C A142C
4. U62C A138G
5. A92U U143C
6. U15C G36C
7. U47A A59U

Out:
0.09
0.67
0.83
0.06
0.99
1.31
0.81
